tested on: Streptococcus pneumoniae; experiment: Antimicrobial activity was determined against penicillin-susceptible Streptococcus pneumoniae (PSSP 49619); format: functional
Here, each record is paired with measured MIC data.
Provide only the numeric value, understood in µg/mL.

{"structure": "CN(C)CCCNC(=O)c1cc(NC(=O)c2cc(NC(=O)c3cc(NC(=O)c4nsc(NCCCCCCCN)c4Cl)cn3C)cn2C)cn1C", "readout label": "MIC", "units symbol": "µg/mL", "numeric value": 32}
{"structure": "Cn1cc(NC(=O)c2cc(NC(=O)c3cc(NC(=O)c4nsc(NCCN5CCOCC5)c4Cl)cn3C)cn2C)cc1C(=O)NCCCO", "readout label": "MIC", "units symbol": "µg/mL", "numeric value": 32}
{"structure": "Cn1cc(NC(=O)c2cc(NC(=O)c3cc(NC(=O)c4nsc(NCCc5ccncc5)c4Cl)cn3C)cn2C)cc1C(=O)NCCN1CCOCC1", "readout label": "MIC", "units symbol": "µg/mL", "numeric value": 0.062}
{"structure": "CCOCCCNc1snc(C(=O)Nc2cc(C(=O)Nc3cc(C(=O)Nc4cc(C(=O)NCCN5CCOCC5)n(C)c4)n(C)c3)n(C)c2)c1Cl", "readout label": "MIC", "units symbol": "µg/mL", "numeric value": 0.25}
{"structure": "CN(C)CCCNC(=O)c1cc(NC(=O)c2cc(NC(=O)c3cc(NC(=O)c4nsc(NCCCCN)c4Cl)cn3C)cn2C)cn1C", "readout label": "MIC", "units symbol": "µg/mL", "numeric value": 0.5}

Request: Sample Cn1cc(NC(=O)c2cc(NC(=O)c3cc(NC(=O)c4nsc(NCCN5CCOCC5)c4Cl)cn3C)cn2C)cc1C(=O)NCCN1CCOCC1 — what was its MIC?
Response: 0.062

Request: Sample Cn1cc(NC(=O)c2cc(NC(=O)c3cc(NC(=O)c4nsc(NCCCO)c4Cl)cn3C)cn2C)cc1C(=O)NCCN1CCOCC1 — what was its MIC?
Response: 0.5
